Assay: Pharmacokinetic analysis in rats (cassette dosing, intravenous)
Type: in vivo
Settings: male, Crl, CD (SD), rat, plasma, intravenous administration (0.5 mg/mL/kg), read-out: Rat t½ (converted)
READOUT: half-life (h)

CC(C)(C)S(=O)(=O)N[C@H]1CC[C@H](c2nc(-c3ccccc3)n[nH]2)CC1 ... 6.4

(a) CC(C)(C)S(=O)(=O)N[C@H]1CC[C@H](c2cc(-c3ccc(F)cc3)n[nH]2)CC1
(b) CC(C)(C)S(=O)(=O)N[C@H]1CC[C@H](c2cc(-c3ccccc3)n[nH]2)CC1
(c) CC(C)(C)S(=O)(=O)N[C@H]1CC[C@H](c2nc(-c3cccc(Cl)c3)n[nH]2)CC1
(d) CC(C)(C)S(=O)(=O)N[C@H]1CC[C@H](c2cc3cc(-c4ncccn4)ccc3[nH]2)CC1
Order by half-life, ascending. Please list each label once, in the requested order.
d, b, c, a
(d: 1.57 h, b: 3.82 h, c: 9.1 h, a: 13.6 h)
